The measured values listed here are drawn from patent US10744150B2.

Catalogue of compounds with associated IC50
Target: STING WT: His-TVMV-S-hSTING(155-341)-H232R (Homo sapiens, UniProt Q86WV6, H232R)
Construct: His-TVMV-S-hSTING(155-341)-H232R
Sequence (Q86WV6 with tags, fused parts or gaps H232R): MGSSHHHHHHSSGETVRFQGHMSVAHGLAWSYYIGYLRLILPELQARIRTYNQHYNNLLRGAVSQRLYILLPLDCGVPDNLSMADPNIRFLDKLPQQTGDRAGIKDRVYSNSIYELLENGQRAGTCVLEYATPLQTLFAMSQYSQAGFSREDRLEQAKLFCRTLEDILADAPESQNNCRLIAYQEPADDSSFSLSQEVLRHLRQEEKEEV
Assay: STING HTRF binding assay (time resolved FRET competition), STING WT
Conditions: 20 nM His-tagged STING cytoplasmic domain, 200 nM fluorescein-labeled cGAMP analog probe, one hour; read-out: HTRF Binding Assays IC50 STING WT
Numbers only; they are read as nM.

Record Nc1ncnc2c1ncn2[C@@H]1O[C@@H]2COP(O)(=S)OC[C@@H]3[C@@H](COP(O)(=S)O[C@H]2[C@H]1F)C[C@H]3n1cnc2c(O)nc3nccn3c21 (single isomer, unassigned) [Example 3-4] ; system STING WT: His-TVMV-S-hSTING(155-341)-H232R (Homo sapiens, UniProt Q86WV6, H232R); IC50 = 1000

As a next step, examine the compound that follows.
// returns IC50 for NC(=O)c1cccc2c1nnn2[C@@H]1O[C@@H]2COP(O)(=S)OC[C@@H]3[C@@H](COP(O)(=S)O[C@@H]1[C@@H]2F)C[C@H]3n1cnc2c(N)ncnc21 (single isomer, unassigned) [Example 11-3] with STING WT: His-TVMV-S-hSTING(155-341)-H232R (Homo sapiens, UniProt Q86WV6, H232R); value = 820

====

Target: STING WT: His-TVMV-S-hSTING(155-341)-H232R (Homo sapiens, UniProt Q86WV6, H232R)
Construct: His-TVMV-S-hSTING(155-341)-H232R
Test: STING HTRF binding assay (time resolved FRET competition), STING WT
Conditions: 20 nM His-tagged STING cytoplasmic domain, 200 nM fluorescein-labeled cGAMP analog probe, one hour; read-out: HTRF Binding Assays IC50 STING WT
value_kind: IC50 (µM)
# number only, unit µM dropped from output

Short answer for Nc1ncnc2c1ncn2[C@@H]1C[C@@H]2COP(O)(=S)O[C@@H]3[C@H](O)[C@@H](COP(O)(=S)OC[C@H]21)O[C@H]3n1cnc2c(O)nc3nccn3c21 (single isomer, unassigned) [Example 15-3] : IC50 was 32.6

Value of measured IC50 for the entry Nc1ncnc2c1ncn2[C@@H]1C[C@@H]2COP(O)(=S)O[C@@H]3[C@H](O)[C@@H](COP(O)(=S)OC[C@H]21)O[C@H]3n1cnc2c(N)ncnc21 (single isomer, unassigned) [Example 4-2] : 3.7

Would you kindly look at the next entry?
The compound listed as O=c1[nH]c2nccn2c2c1ncn2[C@@H]1O[C@@H]2COP(=O)(S)OC[C@@H]3[C@@H](COP(=O)(S)O[C@@H]1[C@@H]2O)C[C@H]3n1cnc2c(O)ncnc21 (single isomer, unassigned) [Example 14-3] shows IC50 equal to 14.3

====

Target: STING AQ: His-TVMV-S-hSTING(155-341)-G230A-R293Q (Homo sapiens, UniProt Q86WV6, G230A/H232R/R293Q)
Construct: His-TVMV-S-hSTING(155-341)-G230A-R293Q
Sequence (Q86WV6 with tags, fused parts or gaps G230A/H232R/R293Q): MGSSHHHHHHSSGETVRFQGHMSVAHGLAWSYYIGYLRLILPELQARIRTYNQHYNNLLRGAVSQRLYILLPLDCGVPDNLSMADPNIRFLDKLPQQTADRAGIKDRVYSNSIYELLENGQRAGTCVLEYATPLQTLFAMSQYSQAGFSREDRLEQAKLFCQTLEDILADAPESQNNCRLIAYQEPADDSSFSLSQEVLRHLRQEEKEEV
Experiment: STING HTRF binding assay (time resolved FRET competition), STING AQ
Settings: 20 nM His-tagged STING cytoplasmic domain, 40 nM fluorescein-labeled cGAMP analog probe, one hour; read-out: HTRF Binding Assays IC50 STING AQ
Experimental: A time resolved FRET-based competition binding assay was used to assess test article binding to STING WT and STING AQ. […] Fluorescence at 495 nm and 520 nm was measured using an EnVision microplate reader to quantify FRET between Tb-labeled anti-His antibody and fluorescein-labeled probe. […] Percent inhibition was determined for test compounds at 11 concentrations. […]
Catalogue of pIC50 values
Field pIC50 (float): negative decimal logarithm of the concentration in molar.

Per the record, NC(=O)c1cccc2c1nnn2[C@@H]1O[C@@H]2COP(O)(=S)OC[C@@H]3[C@@H](COP(O)(=S)O[C@@H]1[C@@H]2F)C[C@H]3n1cnc2c(N)ncnc21 (single isomer, unassigned) [Example 11-3] has pIC50 of 6.96

Field: next molecule
The value of pIC50 measured for the molecule Nc1ncnc2c1ncn2[C@@H]1C[C@@H]2COP(O)(=S)O[C@H]3[C@H](F)[C@H](n4ccc5c(Cl)ncnc54)O[C@@H]3COP(O)(=S)OC[C@H]21 (single isomer, unassigned) [Example 7-3] turned out to be 4.21
